Measured values drawn from patent EP4725969A1 for this set.

biological target: T1, recombinant human HER2 extracellular domain protein (human, UniProt P04626 23-652); test: BLI, Protein A capture
T1 construct: range 23-652; Range is printed for the immunogen/panning protein; also called ErbB2; recombinant HER2 protein
Parameter: pKd
Units for pKd: none; it is -log10 of a concentration expressed in mol/L.

Binder: Hu2126-H2K1-L71-H72b-Mu15 (antibody, IgG1, V domains shown, IgG1/Cκ; also called 7172b-Mu15) VH: QVQLVQSGSELKKPGASVKVSCKASGYTFTDYSMHWVRQAPGQGLEWMGWINTGTGEPTYADDFKGRFTISRDTSKSTAYLQISSLKAEDTAVYYCVRVGRYDYAMDYWGQGTTVTVSS VL: DIQMTQSPSSLSASVGDRVTITCRASQDVYTAVAWYQQKPGKAPKLLINQASSRPTGVPSRFSGSGSGTDFTLTISSLQPEDFATYYCQQYYSTPPTFGGGTKVEIK
pKd: 8.35
--
Binder: Hu2126-H2K1-L71-H72b-Mu18 (antibody, IgG1, V domains shown, IgG1/Cκ; also called 7172b-Mu18) VH: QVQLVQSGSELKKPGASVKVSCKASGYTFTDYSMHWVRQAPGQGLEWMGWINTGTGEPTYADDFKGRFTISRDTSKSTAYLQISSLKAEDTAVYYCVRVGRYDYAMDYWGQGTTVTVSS VL: DIQMTQSPSSLSASVGDRVTITCRASQDVYTAVAWYQQKPGKAPKLLINWASSRPTGVPSRFSGSGSGTDFTLTISSLQPEDFATYYCQQYYSTPPTFGGGTKVEIK
pKd: 8.10
--
Binder: Hu2126-H2K1-L71-H72b-Mu13 (antibody, IgG1, V domains shown, IgG1/Cκ; also called 7172b-Mu13) VH: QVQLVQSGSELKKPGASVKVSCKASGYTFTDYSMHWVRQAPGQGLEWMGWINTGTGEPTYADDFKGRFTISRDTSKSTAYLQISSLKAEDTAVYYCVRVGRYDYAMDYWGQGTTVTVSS VL: DIQMTQSPSSLSASVGDRVTITCRASQDVYTAVAWYQQKPGKAPKLLINKASSRPTGVPSRFSGSGSGTDFTLTISSLQPEDFATYYCQQYYSTPPTFGGGTKVEIK
pKd: 8.14
--
Binder: Hu2126-H2K1-L71-H72b-Mu11 (antibody, IgG1, V domains shown, IgG1/Cκ; also called 7172b-Mu11) VH: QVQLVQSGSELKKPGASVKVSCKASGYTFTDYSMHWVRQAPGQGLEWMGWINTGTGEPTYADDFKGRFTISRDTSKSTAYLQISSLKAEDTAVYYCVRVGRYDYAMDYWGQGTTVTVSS VL: DIQMTQSPSSLSASVGDRVTITCRASQDVYTAVAWYQQKPGKAPKLLINDASSRPTGVPSRFSGSGSGTDFTLTISSLQPEDFATYYCQQYYSTPPTFGGGTKVEIK
pKd: 8.27

Shift focus to the following entry.
I have this binder here, Hu2126-H2K1-L71-H72b-Mu14 (antibody, IgG1, V domains shown, IgG1/Cκ; also called 7172b-Mu14; Hu2126-7172b-Mu14) VH: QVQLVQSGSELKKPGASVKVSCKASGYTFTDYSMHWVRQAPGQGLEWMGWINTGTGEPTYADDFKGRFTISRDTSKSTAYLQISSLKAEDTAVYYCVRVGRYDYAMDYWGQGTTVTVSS VL: DIQMTQSPSSLSASVGDRVTITCRASQDVYTAVAWYQQKPGKAPKLLINLASSRPTGVPSRFSGSGSGTDFTLTISSLQPEDFATYYCQQYYSTPPTFGGGTKVEIK , and I need its recorded pKd.
9.08
